B1: library; a variant is named by its letters at N, in order (parent)
chain: GCUGUCACCGGUGCUUGGUACGUUAUAUUCAGCCGGUCUGAUGAGUCUNNNNNNAGACGAAACAGC

- Variants of: B1
- Assay comment: FACS-Seq fitted mean relative fluorescence mCherry/BFP with ligand (log10 relative fluorescence); HEK293T overexpressing SLC46A1; ligand concentration (+) FACS-Seq: 6 mM; higher = higher reporter protein expression
- Test settings: with (6R,S)-folinic acid; ligand present: yes
# FACS-Seq fitted mean (log10) annotations
Measured parameter: FACS-Seq fitted mean (log10)

- Construct sequence: "GCUGUCACCGGUGCUUGGUACGUUAUAUUCAGCCGGUCUGAUGAGUCUUAGUUGAGACGAAACAGC [UAGUUG]"
  Measured parameter: "FACS-Seq fitted mean (log10)"
  Data value: 0.229
- Construct sequence: "GCUGUCACCGGUGCUUGGUACGUUAUAUUCAGCCGGUCUGAUGAGUCUGCAGGAAGACGAAACAGC [GCAGGA]"
  Measured parameter: "FACS-Seq fitted mean (log10)"
  Data value: 0.642
- Construct sequence: "GCUGUCACCGGUGCUUGGUACGUUAUAUUCAGCCGGUCUGAUGAGUCUUCUGGAAGACGAAACAGC [UCUGGA]"
  Measured parameter: "FACS-Seq fitted mean (log10)"
  Data value: -0.0265
- Construct sequence: "GCUGUCACCGGUGCUUGGUACGUUAUAUUCAGCCGGUCUGAUGAGUCUCUAAAAAGACGAAACAGC [CUAAAA]"
  Measured parameter: "FACS-Seq fitted mean (log10)"
  Data value: 0.19
- Construct sequence: "GCUGUCACCGGUGCUUGGUACGUUAUAUUCAGCCGGUCUGAUGAGUCUCCGAAGAGACGAAACAGC [CCGAAG]"
  Measured parameter: "FACS-Seq fitted mean (log10)"
  Data value: -0.882
- Construct sequence: "GCUGUCACCGGUGCUUGGUACGUUAUAUUCAGCCGGUCUGAUGAGUCUCUGGGAAGACGAAACAGC [CUGGGA]"
  Measured parameter: "FACS-Seq fitted mean (log10)"
  Data value: 0.348
- Construct sequence: "GCUGUCACCGGUGCUUGGUACGUUAUAUUCAGCCGGUCUGAUGAGUCUUAGAAGAGACGAAACAGC [UAGAAG]"
  Measured parameter: "FACS-Seq fitted mean (log10)"
  Data value: 0.456
- Construct sequence: "GCUGUCACCGGUGCUUGGUACGUUAUAUUCAGCCGGUCUGAUGAGUCUGUUCUAAGACGAAACAGC [GUUCUA]"
  Measured parameter: "FACS-Seq fitted mean (log10)"
  Data value: 0.412
- Construct sequence: "GCUGUCACCGGUGCUUGGUACGUUAUAUUCAGCCGGUCUGAUGAGUCUCUAAGUAGACGAAACAGC [CUAAGU]"
  Measured parameter: "FACS-Seq fitted mean (log10)"
  Data value: 0.535
- Construct sequence: "GCUGUCACCGGUGCUUGGUACGUUAUAUUCAGCCGGUCUGAUGAGUCUAUUAAAAGACGAAACAGC [AUUAAA]"
  Measured parameter: "FACS-Seq fitted mean (log10)"
  Data value: 0.296
- Construct sequence: "GCUGUCACCGGUGCUUGGUACGUUAUAUUCAGCCGGUCUGAUGAGUCUGUUCCAAGACGAAACAGC [GUUCCA]"
  Measured parameter: "FACS-Seq fitted mean (log10)"
  Data value: 0.191
- Construct sequence: "GCUGUCACCGGUGCUUGGUACGUUAUAUUCAGCCGGUCUGAUGAGUCUGAAUGAAGACGAAACAGC [GAAUGA]"
  Measured parameter: "FACS-Seq fitted mean (log10)"
  Data value: 0.299
- Construct sequence: "GCUGUCACCGGUGCUUGGUACGUUAUAUUCAGCCGGUCUGAUGAGUCUGAGGGAAGACGAAACAGC [GAGGGA]"
  Measured parameter: "FACS-Seq fitted mean (log10)"
  Data value: 0.0592
- Construct sequence: "GCUGUCACCGGUGCUUGGUACGUUAUAUUCAGCCGGUCUGAUGAGUCUGGAGGCAGACGAAACAGC [GGAGGC]"
  Measured parameter: "FACS-Seq fitted mean (log10)"
  Data value: -0.531
- Construct sequence: "GCUGUCACCGGUGCUUGGUACGUUAUAUUCAGCCGGUCUGAUGAGUCUAAGUGAAGACGAAACAGC [AAGUGA]"
  Measured parameter: "FACS-Seq fitted mean (log10)"
  Data value: 0.42
- Construct sequence: "GCUGUCACCGGUGCUUGGUACGUUAUAUUCAGCCGGUCUGAUGAGUCUGAUGAAAGACGAAACAGC [GAUGAA]"
  Measured parameter: "FACS-Seq fitted mean (log10)"
  Data value: 0.37
- Construct sequence: "GCUGUCACCGGUGCUUGGUACGUUAUAUUCAGCCGGUCUGAUGAGUCUGACAGGAGACGAAACAGC [GACAGG]"
  Measured parameter: "FACS-Seq fitted mean (log10)"
  Data value: 0.498
- Construct sequence: "GCUGUCACCGGUGCUUGGUACGUUAUAUUCAGCCGGUCUGAUGAGUCUUCGUACAGACGAAACAGC [UCGUAC]"
  Measured parameter: "FACS-Seq fitted mean (log10)"
  Data value: 0.343
- Construct sequence: "GCUGUCACCGGUGCUUGGUACGUUAUAUUCAGCCGGUCUGAUGAGUCUAACUGAAGACGAAACAGC [AACUGA]"
  Measured parameter: "FACS-Seq fitted mean (log10)"
  Data value: 0.455
- Construct sequence: "GCUGUCACCGGUGCUUGGUACGUUAUAUUCAGCCGGUCUGAUGAGUCUGAUGUUAGACGAAACAGC [GAUGUU]"
  Measured parameter: "FACS-Seq fitted mean (log10)"
  Data value: 0.463
- Construct sequence: "GCUGUCACCGGUGCUUGGUACGUUAUAUUCAGCCGGUCUGAUGAGUCUAUAAACAGACGAAACAGC [AUAAAC]"
  Measured parameter: "FACS-Seq fitted mean (log10)"
  Data value: -0.127
- Construct sequence: "GCUGUCACCGGUGCUUGGUACGUUAUAUUCAGCCGGUCUGAUGAGUCUUAUAAAAGACGAAACAGC [UAUAAA]"
  Measured parameter: "FACS-Seq fitted mean (log10)"
  Data value: 0.0605
- Construct sequence: "GCUGUCACCGGUGCUUGGUACGUUAUAUUCAGCCGGUCUGAUGAGUCUCACACAAGACGAAACAGC [CACACA]"
  Measured parameter: "FACS-Seq fitted mean (log10)"
  Data value: 0.319
- Construct sequence: "GCUGUCACCGGUGCUUGGUACGUUAUAUUCAGCCGGUCUGAUGAGUCUAUAUGUAGACGAAACAGC [AUAUGU]"
  Measured parameter: "FACS-Seq fitted mean (log10)"
  Data value: 0.417
- Construct sequence: "GCUGUCACCGGUGCUUGGUACGUUAUAUUCAGCCGGUCUGAUGAGUCUAACCUAAGACGAAACAGC [AACCUA]"
  Measured parameter: "FACS-Seq fitted mean (log10)"
  Data value: -0.514
- Construct sequence: "GCUGUCACCGGUGCUUGGUACGUUAUAUUCAGCCGGUCUGAUGAGUCUGAACGCAGACGAAACAGC [GAACGC]"
  Measured parameter: "FACS-Seq fitted mean (log10)"
  Data value: 0.118
- Construct sequence: "GCUGUCACCGGUGCUUGGUACGUUAUAUUCAGCCGGUCUGAUGAGUCUUCGUUGAGACGAAACAGC [UCGUUG]"
  Measured parameter: "FACS-Seq fitted mean (log10)"
  Data value: 0.598
- Construct sequence: "GCUGUCACCGGUGCUUGGUACGUUAUAUUCAGCCGGUCUGAUGAGUCUUGGUAUAGACGAAACAGC [UGGUAU]"
  Measured parameter: "FACS-Seq fitted mean (log10)"
  Data value: 0.274
- Construct sequence: "GCUGUCACCGGUGCUUGGUACGUUAUAUUCAGCCGGUCUGAUGAGUCUUAACACAGACGAAACAGC [UAACAC]"
  Measured parameter: "FACS-Seq fitted mean (log10)"
  Data value: 0.223
- Construct sequence: "GCUGUCACCGGUGCUUGGUACGUUAUAUUCAGCCGGUCUGAUGAGUCUUUAAACAGACGAAACAGC [UUAAAC]"
  Measured parameter: "FACS-Seq fitted mean (log10)"
  Data value: 0.271
- Construct sequence: "GCUGUCACCGGUGCUUGGUACGUUAUAUUCAGCCGGUCUGAUGAGUCUUGGGUGAGACGAAACAGC [UGGGUG]"
  Measured parameter: "FACS-Seq fitted mean (log10)"
  Data value: 0.261
- Construct sequence: "GCUGUCACCGGUGCUUGGUACGUUAUAUUCAGCCGGUCUGAUGAGUCUGACGGUAGACGAAACAGC [GACGGU]"
  Measured parameter: "FACS-Seq fitted mean (log10)"
  Data value: 0.486
- Construct sequence: "GCUGUCACCGGUGCUUGGUACGUUAUAUUCAGCCGGUCUGAUGAGUCUUGGUGGAGACGAAACAGC [UGGUGG]"
  Measured parameter: "FACS-Seq fitted mean (log10)"
  Data value: 0.742
- Construct sequence: "GCUGUCACCGGUGCUUGGUACGUUAUAUUCAGCCGGUCUGAUGAGUCUACAGAAAGACGAAACAGC [ACAGAA]"
  Measured parameter: "FACS-Seq fitted mean (log10)"
  Data value: 0.0345
- Construct sequence: "GCUGUCACCGGUGCUUGGUACGUUAUAUUCAGCCGGUCUGAUGAGUCUGCAUAAAGACGAAACAGC [GCAUAA]"
  Measured parameter: "FACS-Seq fitted mean (log10)"
  Data value: 0.171
- Construct sequence: "GCUGUCACCGGUGCUUGGUACGUUAUAUUCAGCCGGUCUGAUGAGUCUGAGAGGAGACGAAACAGC [GAGAGG]"
  Measured parameter: "FACS-Seq fitted mean (log10)"
  Data value: 0.336
- Construct sequence: "GCUGUCACCGGUGCUUGGUACGUUAUAUUCAGCCGGUCUGAUGAGUCUGCCAUGAGACGAAACAGC [GCCAUG]"
  Measured parameter: "FACS-Seq fitted mean (log10)"
  Data value: 0.209
- Construct sequence: "GCUGUCACCGGUGCUUGGUACGUUAUAUUCAGCCGGUCUGAUGAGUCUUCAGAUAGACGAAACAGC [UCAGAU]"
  Measured parameter: "FACS-Seq fitted mean (log10)"
  Data value: 0.201
- Construct sequence: "GCUGUCACCGGUGCUUGGUACGUUAUAUUCAGCCGGUCUGAUGAGUCUGAGGCAAGACGAAACAGC [GAGGCA]"
  Measured parameter: "FACS-Seq fitted mean (log10)"
  Data value: 0.296
- Construct sequence: "GCUGUCACCGGUGCUUGGUACGUUAUAUUCAGCCGGUCUGAUGAGUCUGGAUUCAGACGAAACAGC [GGAUUC]"
  Measured parameter: "FACS-Seq fitted mean (log10)"
  Data value: 0.746
- Construct sequence: "GCUGUCACCGGUGCUUGGUACGUUAUAUUCAGCCGGUCUGAUGAGUCUUAUCCGAGACGAAACAGC [UAUCCG]"
  Measured parameter: "FACS-Seq fitted mean (log10)"
  Data value: 0.376
- Construct sequence: "GCUGUCACCGGUGCUUGGUACGUUAUAUUCAGCCGGUCUGAUGAGUCUCGAGGGAGACGAAACAGC [CGAGGG]"
  Measured parameter: "FACS-Seq fitted mean (log10)"
  Data value: 0.672
- Construct sequence: "GCUGUCACCGGUGCUUGGUACGUUAUAUUCAGCCGGUCUGAUGAGUCUGCUCAAAGACGAAACAGC [GCUCAA]"
  Measured parameter: "FACS-Seq fitted mean (log10)"
  Data value: 0.374
- Construct sequence: "GCUGUCACCGGUGCUUGGUACGUUAUAUUCAGCCGGUCUGAUGAGUCUAAUAAUAGACGAAACAGC [AAUAAU]"
  Measured parameter: "FACS-Seq fitted mean (log10)"
  Data value: 0.56
- Construct sequence: "GCUGUCACCGGUGCUUGGUACGUUAUAUUCAGCCGGUCUGAUGAGUCUCUAUGUAGACGAAACAGC [CUAUGU]"
  Measured parameter: "FACS-Seq fitted mean (log10)"
  Data value: 0.152
- Construct sequence: "GCUGUCACCGGUGCUUGGUACGUUAUAUUCAGCCGGUCUGAUGAGUCUACUUAUAGACGAAACAGC [ACUUAU]"
  Measured parameter: "FACS-Seq fitted mean (log10)"
  Data value: 0.329

The reported measurements were obtained from the supplement of paper PMC6757056.
